- study target: MAGI2_6, Q86UL8
- Sequence (Q86UL8 1141-1229): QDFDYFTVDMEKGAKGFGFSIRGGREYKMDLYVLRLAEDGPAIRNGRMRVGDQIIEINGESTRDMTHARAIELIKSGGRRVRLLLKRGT
- protocol: holdup assay
- Parameters: key: below the threshold = too weak to quantify, mostly under pKd 3.1 to 4
- measurement setup: plain residues with an end cap or a label only (N-terminal biotin on a linker: ahx)
metric: pKd

[[record]]
binder = "TEAKLTETNA [MYO18A, Q92614]"
metric = "pKd"
experimental_result = "below the threshold"

[[record]]
binder = "QPRTWLQSPV [RTKN, Q9BST9]"
metric = "pKd"
experimental_result = "below the threshold"

[[record]]
binder = "HTHSYIETHV [CNKSR2, Q8WXI2]"
metric = "pKd"
experimental_result = 4.41

[[record]]
binder = "APSRKLNTEI [TIAM1, Q13009]"
metric = "pKd"
experimental_result = "below the threshold"

